Tested on: SNB-75
Assay: NCI tumour cell line growth inhibition, 48 h
Activity calls are given as the source filed them. No stated cut-off is given here; in the data, active = GI50 up to about 1.1 µM and inactive = higher.
# valid calls are active, inactive; nothing else

Dear colleague, could you share the recorded outcome for CCOc1cc(NC(C)=O)ccc1C(=O)NNC(=O)c1ccccc1OC(C)=O when you have a moment?
inactive

Dear colleague, could you share the recorded outcome for C#CCNC(Cc1c[nH]cn1)C(=O)O (stereo not given) when you have a moment?
inactive

Dear colleague, could you share the recorded outcome for COc1cc(C2c3cc4c(cc3[C@@H](NCCN3CCCCC3)C3COC(=O)[C@H]23)OCO4)cc(OC)c1O (stereo not given in full) when you have a moment?
active

Dear colleague, could you share the recorded outcome for CO[C@]12CCC(=O)N1C=Cc1c2[nH]c2ccccc12 when you have a moment?
inactive

Dear colleague, could you share the recorded outcome for CC(C)(C)OC(=O)NCCCCC(NC(=O)c1ccccc1)C(N)=O (stereo not given) when you have a moment?
inactive

Dear colleague, could you share the recorded outcome for C/C(Cl)=N/OC(=O)Nc1ccc(S(N)(=O)=O)c(C)c1 when you have a moment?
inactive

Dear colleague, could you share the recorded outcome for CCCCCCCCC/C=C1/CC(CO)(COC(=O)c2ccccc2)OC1=O (stereo not given) when you have a moment?
inactive

Dear colleague, could you share the recorded outcome for Nc1ccc(I)cn1 when you have a moment?
inactive

Dear colleague, could you share the recorded outcome for CN1C(=O)[C@](C)(Cc2ccc(F)cc2)N(C(=O)OC(C)(C)C)[C@@H]1C(C)(C)C when you have a moment?
inactive

Dear colleague, could you share the recorded outcome for [N-]=[N+]=Nc1c(Cc2ccccc2)c(Cl)nc2ccccc12 when you have a moment?
inactive

Dear colleague, could you share the recorded outcome for COc1cc2c(cc1OC)C(=O)/C(=C/c1ccccc1)C2 when you have a moment?
inactive

Dear colleague, could you share the recorded outcome for CCOC(=O)C/C(N)=C(\C#N)C(=O)OCC when you have a moment?
inactive

Dear colleague, could you share the recorded outcome for CCOC(=O)c1cc(Br)c(-c2cc(C)co2)[nH]1 when you have a moment?
inactive

Dear colleague, could you share the recorded outcome for C=C[C@@]1(C)CCC2(O)C(CCC3C2(C)CCC[C@@]3(C)COC(=O)CC(=O)OC)C1 (stereo not given in full) when you have a moment?
inactive

Dear colleague, could you share the recorded outcome for N#Cc1sc2nc3ccccc3n2c1N when you have a moment?
inactive

Dear colleague, could you share the recorded outcome for CCOc1cc(NC(C)=O)ccc1C(=O)N/N=C/c1ccco1 when you have a moment?
inactive

Dear colleague, could you share the recorded outcome for CCC(C)C(NC(=O)c1c2ccccc2nc2ccccc12)C(=O)O (stereo not given) when you have a moment?
inactive

Dear colleague, could you share the recorded outcome for CC1(C)OC2COC3(CNO)OC(C)(C)OC3C2O1 (stereo not given) when you have a moment?
inactive

Dear colleague, could you share the recorded outcome for COc1ccc2nc(C(=O)c3ccccc3)c(C)cc2c1 when you have a moment?
inactive

Dear colleague, could you share the recorded outcome for Cc1cc(N(CCC#N)CCC#N)ccc1C(/N=N/c1ccc([N+](=O)[O-])cc1)=N\NC(=O)c1cc(Cl)ccc1C(=O)c1ccccc1 when you have a moment?
inactive

Dear colleague, could you share the recorded outcome for CC(=O)OC1=C(c2ccccc2)S(=O)(=O)c2ccccc21 when you have a moment?
inactive

Dear colleague, could you share the recorded outcome for CC(=O)C(CN1C(=O)c2ccccc2C1=O)C(C)=O when you have a moment?
inactive

Dear colleague, could you share the recorded outcome for O=c1c2cc(Br)cc(Br)c2nc(CCCl)n1CCO when you have a moment?
inactive

Dear colleague, could you share the recorded outcome for Oc1nnnc2c1sc1ncccc12 when you have a moment?
inactive

Dear colleague, could you share the recorded outcome for COc1ccc(C(OCC2OC(n3ccc(NC(=O)c4ccccc4)nc3=O)C(O)C2O)(c2ccccc2)c2ccccc2)cc1 (stereo not given) when you have a moment?
inactive

Dear colleague, could you share the recorded outcome for CN(C)c1ccc(/C=c2/c3ccccc3n3nc4ccccc4c23)cc1 when you have a moment?
inactive

Dear colleague, could you share the recorded outcome for O=c1[nH]nc(Cc2ccccc2)n1/N=C/c1cccnc1 when you have a moment?
inactive

Dear colleague, could you share the recorded outcome for Sc1nnc(-c2ccccc2)n1/N=C\c1ccc(-c2ccc(Cl)cc2)o1 when you have a moment?
inactive

Dear colleague, could you share the recorded outcome for COc1ccc(-c2cc(=O)c3ccc(O)cc3o2)cc1OC when you have a moment?
inactive

Dear colleague, could you share the recorded outcome for CCO[C@@]12CCC3CC4CC[C@@](OCC)(O1)C4C32 (stereo not given in full) when you have a moment?
inactive

Dear colleague, could you share the recorded outcome for Cn1c(=O)c2ccc(-c3ccc(Br)cc3)nc2n(C)c1=O when you have a moment?
inactive

Dear colleague, could you share the recorded outcome for CS(=O)(=O)OCCCCOS(=O)(=O)CF when you have a moment?
inactive

Dear colleague, could you share the recorded outcome for O=[N+]([O-])c1cc2ncc(-c3ccccc3)c(O)c2cc1/C(Cl)=C/c1ccccc1 when you have a moment?
inactive

Dear colleague, could you share the recorded outcome for O=S(=O)(/C=C/C=C/S(=O)(=O)c1ccccc1)c1ccccc1 when you have a moment?
inactive

Dear colleague, could you share the recorded outcome for Cc1cc2c(c(C#N)c1C)NC(=O)CCC2=O when you have a moment?
inactive

Dear colleague, could you share the recorded outcome for O=C(/C=C/c1ccccc1)Nc1ccccc1SCCCCl when you have a moment?
inactive

Dear colleague, could you share the recorded outcome for COC(=O)/C(=N\NC(=S)NN)C(C(=O)OC)C(=O)C(=O)Nc1cccc(C(F)(F)F)c1 (stereo not given) when you have a moment?
inactive

Dear colleague, could you share the recorded outcome for C[C@]12CCC3[C@@H](CC[C@@H]4c5nonc5CC[C@]34C)C1CC[C@@H]2O (stereo not given in full) when you have a moment?
inactive

Dear colleague, could you share the recorded outcome for COc1cc2ccc(=O)oc2cc1O when you have a moment?
inactive

Dear colleague, could you share the recorded outcome for C[C@@H]1CCC2C(C)(C)C(/C=C\C=O)C3(C)OC213 (stereo not given in full) when you have a moment?
inactive

Dear colleague, could you share the recorded outcome for CCOC(=O)C(C(N)=O)C1=Nc2cc([N+](=O)[O-])ccc2N/C1=C\C(=O)c1ccccc1 (stereo not given) when you have a moment?
inactive

Dear colleague, could you share the recorded outcome for O=C(O)CC(O)(c1ccccc1C(=O)O)c1cccc2ccccc12 (stereo not given) when you have a moment?
inactive

Dear colleague, could you share the recorded outcome for CCCCCCCCCCCCCCCCOP(=O)(O)OP(=O)(O)OCC1OC(n2cnc3c(N)ncnc32)C(O)C1O (stereo not given) when you have a moment?
inactive

Dear colleague, could you share the recorded outcome for O=C1NCCCc2nonc21 when you have a moment?
inactive

Dear colleague, could you share the recorded outcome for O=c1[nH]nc(Cc2ccc(Cl)cc2)n1Nc1ccccc1 when you have a moment?
inactive
